Taken from PubChem BioAssay AID689.

# Target or test system: Ephrin type-A receptor 4 (Mus musculus)
# Run description: inhibitors of EphA4 binding to KYL peptide, primary screen, biochemical, colorimetric, mouse EphA4 (AID 689)
# Condition description: EphA4-AP binding to KYL peptide, pNPP A405, at 10 µM, stronger effect = higher value
Among all 62,000 compounds or so, about 80 (0.1%) were called active. Only a sample is shown. Potency and affinity values are given separately.
Measured parameter: inhibition

Solved cases below.
(Q) Please report the recorded inhibition for `CC1=N/C(=C\c2ccc([N+](=O)[O-])cc2)C(=O)N1c1ccc(Cl)cc1` .
(A) 22.2% (inactive)

(Q) Follow-up entry: CC(CCc1ccccc1)NC(=O)c1cncc(Br)c1 (stereo not given)
(A) 1.4% (inactive)

***
(Q) Please report the recorded inhibition for `CCOC(=O)c1ccc(COC(=O)c2ccc3c(c2)-c2ccccc2C3=O)cc1` .
(A) -10.7% (inactive)

(Q) Follow-up entry: `CC(=O)c1cccc(NS(=O)(=O)c2cc(OCC(N)=O)c(C)cc2Cl)c1`
(A) -4% (inactive)

(Q) Follow-up entry: `Cc1c(NC(=S)N/N=C/c2ccc(O)cc2)c(=O)n(-c2ccccc2)n1C`
(A) -1.6% (inactive)

(Q) Follow-up entry: COc1cc(C2N(c3ccc(Cl)c(Cl)c3)C(=O)C3CCCN32)cc(OC)c1OC (stereo not given)
(A) -1.5% (inactive)

(Q) Follow-up entry: `CC(=NCCc1ccccc1)C1=C(O)CCC1=O`
(A) -2.3% (inactive)

====

# Target or test system: Ephrin type-A receptor 4 (Mus musculus)
# Run description: inhibitors of EphA4 binding to KYL peptide, primary screen, biochemical, colorimetric, mouse EphA4 (AID 689)
# Condition description: EphA4-AP binding to KYL peptide, pNPP A405, at 10 µM, stronger effect = higher value
Among all 62,000 compounds or so, about 80 (0.1%) were called active. Not all results are given here. Results with a measured potency or affinity are listed apart.
Measured parameter: inhibition

Solved cases below.
(Q) Please report the recorded inhibition for `CCCOc1nc2c(c(=O)n(C)c(=O)n2C)n1CCC` .
(A) -3.5% (inactive)

(Q) Follow-up entry: `Cn1c(=O)n(C)c2cc(S(=O)(=O)NCc3ccco3)ccc21`
(A) -8% (inactive)

(Q) Follow-up entry: `CN1/C(=C\C=[N+](C)c2ccccc2)C(C)(C)c2ccccc21`
(A) -36.4% (inactive)

***
(Q) Please report the recorded inhibition for `Cc1c(NC(=O)CC(=O)Nc2c(C)n(C)n(-c3ccccc3)c2=O)c(=O)n(-c2ccccc2)n1C` .
(A) 0.3% (inactive)
